# Test system: Escherichia coli
# method: Activity of purified Escherichia coli pantothenate kinase by spectrophotometry
observationType: Km (µM)

Example entries begin here.
smilesRepr: CC(C)(CO)[C@@H](O)C(=O)NCCC(=O)NCc1ccccc1
unitAnnotation: µM
observed: 67

smilesRepr: CCCCCNC(=O)CCNC(=O)[C@H](O)C(CC)(CC)CO
unitAnnotation: µM
observed: 1200

1. CC(C)(CO)[C@@H](O)C(=O)NCCC(=O)NCc1cccnc1
2. CC(C)(CO)[C@@H](O)C(=O)NCCC(=O)N1CCc2ccccc21
3. CC(C)(CO)[C@@H](O)C(=O)NCCC(=O)O
4. CCCCCn1cc(CNC(=O)[C@H](O)C(C)(C)CO)nn1
5. CCCc1cn(CCCNC(=O)[C@H](O)C(C)(C)CO)nn1
Q) Put these in order: smallest Km first, largest last. Returns: the labels listed in the requested order.
A) 3, 1, 4, 2, 5
(3: 21 µM, 1: 33 µM, 4: 190 µM, 2: 400 µM, 5: 1000 µM)

1. CC(C)(CO)[C@@H](O)C(=O)NCCC(=O)N1Cc2ccccc2C1
2. Cc1cccnc1NC(=O)CCNC(=O)[C@H](O)C(C)(C)CO
Q) Returns the identifier with the smallest measured Km among 1 and 2 . Your choice should be expressed through its label.
A) 2
